Kindly supply the reported MCC values for the records listed here.
experiment: Cytotoxicity against human HEL cells; assay type: cell-based

MCC in this record for C[C@H](NP(=O)(OC[C@H]1O[C@@H](n2cnc(C(N)=O)n2)[C@H](O)[C@@H]1O)Oc1cccc2ccccc12)C(=O)OCc1ccccc1 (some centres undefined) : > 100 µM

MCC in this record for NC(=O)c1ncn([C@@H]2O[C@H](COP(=O)(N[C@@H](Cc3ccccc3)C(=O)OCc3ccccc3)Oc3cccc4ccccc34)[C@@H](O)[C@H]2O)n1 (some centres undefined) : > 100 µM

MCC in this record for NC(=O)c1ncn([C@@H]2O[C@H](COP(=O)(NCC(=O)OCc3ccccc3)Oc3cccc4ccccc34)[C@@H](O)[C@H]2O)n1 (some centres undefined) : > 100 µM

MCC in this record for NC(=O)c1ncn([C@@H]2O[C@H](CO)[C@@H](O)[C@H]2O)n1 [RIBAVIRIN] : > 100 µM

----------
Kindly supply the reported MCC values for the records listed here.
assay: Cytotoxicity against human HeLa cells; format: cell-based

MCC in this record for NC(=O)c1ncn([C@@H]2O[C@H](COP(=O)(N[C@@H](Cc3ccccc3)C(=O)OCc3ccccc3)Oc3cccc4ccccc34)[C@@H](O)[C@H]2O)n1 (some centres undefined) : > 100 µM

MCC in this record for NC(=O)c1ncn([C@@H]2O[C@H](COP(=O)(NCC(=O)OCc3ccccc3)Oc3cccc4ccccc34)[C@@H](O)[C@H]2O)n1 (some centres undefined) : > 100 µM

MCC in this record for C[C@H](NP(=O)(OC[C@H]1O[C@@H](n2cnc(C(N)=O)n2)[C@H](O)[C@@H]1O)Oc1cccc2ccccc12)C(=O)OCc1ccccc1 (some centres undefined) : > 100 µM

MCC in this record for `NC(=O)c1ncn([C@@H]2O[C@H](CO)[C@@H](O)[C@H]2O)n1` : > 100 µM

----------
test system: Human respirovirus 3; assay: Antiviral activity against Parainfluenza 3 virus assessed as inhibition of virus-induced cytopathicity by cell based assay; type: functional, organism-based
Kindly supply the reported EC50 values for the records listed here.

EC50 in this record for NC(=O)c1ncn([C@@H]2O[C@H](COP(=O)(N[C@@H](Cc3ccccc3)C(=O)OCc3ccccc3)Oc3cccc4ccccc34)[C@@H](O)[C@H]2O)n1 (stereo partly drawn) : > 100 µM

EC50 in this record for C[C@H](NP(=O)(OC[C@H]1O[C@@H](n2cnc(C(N)=O)n2)[C@H](O)[C@@H]1O)Oc1cccc2ccccc12)C(=O)OCc1ccccc1 (stereo partly drawn) : > 100 µM

EC50 in this record for NC(=O)c1ncn([C@@H]2O[C@H](COP(=O)(NCC(=O)OCc3ccccc3)Oc3cccc4ccccc34)[C@@H](O)[C@H]2O)n1 (stereo partly drawn) : > 100 µM

----------
tested on: Vaccinia virus; experiment: Antiviral activity against Vaccinia virus lederle infected in human HEL cells assessed as inhibition of virus-induced cytopathicity; format: functional, organism-based; details: Orthopoxvirus vaccinia
Endpoint name: EC50 (µM)
State the answer as a number, implicitly in µM.

EC50 in this record for C[C@H](NP(=O)(OC[C@H]1O[C@@H](n2cnc(C(N)=O)n2)[C@H](O)[C@@H]1O)Oc1cccc2ccccc12)C(=O)OCc1ccccc1 (stereo partly drawn) : 100

EC50 in this record for NC(=O)c1ncn([C@@H]2O[C@H](COP(=O)(NCC(=O)OCc3ccccc3)Oc3cccc4ccccc34)[C@@H](O)[C@H]2O)n1 (stereo partly drawn) : 20

EC50 in this record for NC(=O)c1ncn([C@@H]2O[C@H](COP(=O)(N[C@@H](Cc3ccccc3)C(=O)OCc3ccccc3)Oc3cccc4ccccc34)[C@@H](O)[C@H]2O)n1 (stereo partly drawn) : 100
